- Test system: Pseudomonas aeruginosa ATCC 27853
- Type: cell-based
- Condition Label: ATCC 27853
Where a SMILES comes first, the peptide text is derived from it. Bridges are numbered along the chain shown (N, C = ends). [ ]: non-standard residue; d: D form. The star is where a group is joined. Nicotinoyl(6-CF3) = O=C(c1ccc(C(F)(F)F)nc1)*; X32 = O=C(c1cnc(Cl)c(Cl)c1)*; X15 = O=C(c1ccc(Cl)nc1Cl)*; X1 = O=C(c1ncc(Cl)cc1Cl)*; dNva = CCC[C@@H](N)C(=O)O; X29 = O=C(c1cc(Cl)ccn1)*; X65 = O=C(c1cc(Br)ccn1)*; Dab = NCC[C@H](N)C(=O)O; Abu = CC[C@H](N)C(=O)O; Dap = NC[C@H](N)C(=O)O
Measured Parameter: Minimum inhibitory concentration (mg/L)
Numbers only; they are read as mg/L.

• CCC[C@H]1NC(=O)[C@H](CCN)NC(=O)[C@@H](NC(=O)[C@H](CN)NC(=O)[C@@H](NC(=O)[C@H](CCN)NC(=O)c2cc(Cl)ccn2)[C@@H](C)O)CCNC(=O)[C@H]([C@@H](C)O)NC(=O)[C@H](CCN)NC(=O)[C@H](CCN)NC(=O)[C@H](CC)NC1=O [Compound 96] (X29-[Dab]T[Dap][Dab][Dab][dNva][Abu][Dab][Dab]T; lactam 4-C) = 0.25
• CC[C@@H]1NC(=O)[C@@H](CC(C)C)NC(=O)[C@H](CCN)NC(=O)[C@@H](NC(=O)[C@H](CN)NC(=O)[C@@H](NC(=O)[C@H](CCN)NC(=O)c2cnc(Cl)c(Cl)c2)[C@@H](C)O)CCNC(=O)[C@H]([C@@H](C)O)NC(=O)[C@H](CCN)NC(=O)[C@H](CCN)NC1=O [Compound 5] (X32-[Dab]T[Dap][Dab][Dab][dL][Abu][Dab][Dab]T; lactam 4-C) = 1
• C[C@@H](O)[C@@H]1NC(=O)[C@H](CCN)NC(=O)[C@H](CCN)NC(=O)[C@H]([C@@H](C)O)NC(=O)[C@@H](Cc2ccccc2)NC(=O)[C@H](CCN)NC(=O)[C@@H](NC(=O)[C@H](CN)NC(=O)[C@@H](NC(=O)[C@H](CCN)NC(=O)c2ncc(Cl)cc2Cl)[C@@H](C)O)CCNC1=O [Compound 11] (X1-[Dab]T[Dap][Dab][Dab][dF]T[Dab][Dab]T; lactam 4-C) = 0.25

input: What does the data say about its Minimum inhibitory concentration? Entry: CC[C@@H]1NC(=O)[C@@H](CC(C)C)NC(=O)[C@H](CCN)NC(=O)[C@@H](NC(=O)[C@H](CN)NC(=O)[C@@H](NC(=O)[C@H](CCN)NC(=O)c2ccc(C(F)(F)F)nc2)[C@@H](C)O)CCNC(=O)[C@H]([C@@H](C)O)NC(=O)[C@H](CCN)NC(=O)[C@H](CCN)NC1=O [Compound 3] ({Nicotinoyl(6-CF3)}-[Dab]T[Dap][Dab][Dab][dL][Abu][Dab][Dab]T; lactam 4-C)
output: 0.5

input: Proceed to CC[C@@H]1NC(=O)[C@@H](CC(C)C)NC(=O)[C@H](CCN)NC(=O)[C@@H](NC(=O)[C@H](CN)NC(=O)[C@@H](NC(=O)[C@H](CCN)NC(=O)c2cc(Br)ccn2)[C@@H](C)O)CCNC(=O)[C@H]([C@@H](C)O)NC(=O)[C@H](CCN)NC(=O)[C@H](CCN)NC1=O [Compound 102] (X65-[Dab]T[Dap][Dab][Dab][dL][Abu][Dab][Dab]T; lactam 4-C)
output: 0.5

input: Next up: CC[C@@H]1NC(=O)[C@@H](CC(C)C)NC(=O)[C@H](CCN)NC(=O)[C@@H](NC(=O)[C@H](CN)NC(=O)[C@@H](NC(=O)[C@H](CCN)NC(=O)c2ccc(Cl)nc2Cl)[C@@H](C)O)CCNC(=O)[C@H]([C@@H](C)O)NC(=O)[C@H](CCN)NC(=O)[C@H](CCN)NC1=O [Compound 7] (X15-[Dab]T[Dap][Dab][Dab][dL][Abu][Dab][Dab]T; lactam 4-C)
output: 1

* * *

- Test system: Pseudomonas aeruginosa ATCC 27853
- Assay type: cell-based
- Condition Label: ATCC 27853
Where a SMILES comes first, the peptide text is derived from it. Bridges are numbered along the chain shown (N, C = ends). [ ]: non-standard residue; d: D form. The star is where a group is joined. X19 = O=C(c1ncc(C(F)(F)F)cc1Cl)*; X46 = O=C(c1cc(Br)nc(Br)c1)*; X30 = O=C(c1ccc(Cl)cn1)*; Dab = NCC[C@H](N)C(=O)O; Abu = CC[C@H](N)C(=O)O; Dap = NC[C@H](N)C(=O)O
Measured Parameter: Minimum inhibitory concentration (µg/mL)
The reply should contain only the number, in µg/mL.

Here's what some known entries look like.
- CC[C@@H]1NC(=O)[C@@H](CC(C)C)NC(=O)[C@H](CCN)NC(=O)[C@@H](NC(=O)[C@H](CN)NC(=O)[C@@H](NC(=O)[C@H](CCN)NC(=O)c2ccc(Cl)cn2)[C@@H](C)O)CCNC(=O)[C@H]([C@@H](C)O)NC(=O)[C@H](CCN)NC(=O)[C@H](CCN)NC1=O [Compound 37] (X30-[Dab]T[Dap][Dab][Dab][dL][Abu][Dab][Dab]T; lactam 4-C): 0.25
- CC[C@@H]1NC(=O)[C@@H](CC(C)C)NC(=O)[C@H](CCN)NC(=O)[C@@H](NC(=O)[C@H](CN)NC(=O)[C@@H](NC(=O)[C@H](CCN)NC(=O)c2cc(Br)nc(Br)c2)[C@@H](C)O)CCNC(=O)[C@H]([C@@H](C)O)NC(=O)[C@H](CCN)NC(=O)[C@H](CCN)NC1=O [Compound 28] (X46-[Dab]T[Dap][Dab][Dab][dL][Abu][Dab][Dab]T; lactam 4-C): 0.25

Kindly review the next compound as well.
input: Quick one: Minimum inhibitory concentration of CC[C@@H]1NC(=O)[C@@H](CC(C)C)NC(=O)[C@H](CCN)NC(=O)[C@@H](NC(=O)[C@H](CN)NC(=O)[C@@H](NC(=O)[C@H](CCN)NC(=O)c2ncc(C(F)(F)F)cc2Cl)[C@@H](C)O)CCNC(=O)[C@H]([C@@H](C)O)NC(=O)[C@H](CCN)NC(=O)[C@H](CCN)NC1=O [Compound 35] (X19-[Dab]T[Dap][Dab][Dab][dL][Abu][Dab][Dab]T; lactam 4-C) ?
output: 0.25

* * *

- Test system: Acinetobacter baumannii FADDI-AB030
- Test Protocol: microbe, parasite or virus in culture
- Assay type: cell-based
- Condition Label: FADDI-AB030
Where a SMILES comes first, the peptide text is derived from it. Bridges are numbered along the chain shown (N, C = ends). [ ]: non-standard residue; d: D form. The star is where a group is joined. X43 = O=C(c1ccc(-c2ccc(Cl)cc2)cn1)*; X47 = O=C(c1cc2cc(Cl)ccc2[nH]1)*; X50 = O=C(c1sc(Br)cc1Br)*; Dab = NCC[C@H](N)C(=O)O; Abu = CC[C@H](N)C(=O)O; Dap = NC[C@H](N)C(=O)O
Measured Parameter: Minimum inhibitory concentration
# answer = value followed by unit

See these solved cases before continuing.
- CC[C@@H]1NC(=O)[C@@H](CC(C)C)NC(=O)[C@H](CCN)NC(=O)[C@@H](NC(=O)[C@H](CN)NC(=O)[C@@H](NC(=O)[C@H](CCN)NC(=O)c2cc3cc(Cl)ccc3[nH]2)[C@@H](C)O)CCNC(=O)[C@H]([C@@H](C)O)NC(=O)[C@H](CCN)NC(=O)[C@H](CCN)NC1=O [Compound 59] (X47-[Dab]T[Dap][Dab][Dab][dL][Abu][Dab][Dab]T; lactam 4-C): 0.5 µg/mL
- CC(C)C[C@H]1NC(=O)[C@H](CCN)NC(=O)[C@@H](NC(=O)[C@H](CN)NC(=O)[C@@H](NC(=O)[C@H](CCN)NC(=O)c2ccc(-c3ccc(Cl)cc3)cn2)[C@@H](C)O)CCNC(=O)[C@H]([C@@H](C)O)NC(=O)[C@H](CCN)NC(=O)[C@H](CCN)NC(=O)[C@H]([C@@H](C)O)NC1=O [Compound 15] (X43-[Dab]T[Dap][Dab][Dab][dL]T[Dab][Dab]T; lactam 4-C): 1 µg/mL

input: Form field - read-out: Minimum inhibitory concentration; system: Acinetobacter baumannii FADDI-AB030; submitted item: CC(C)C[C@H]1NC(=O)[C@H](CCN)NC(=O)[C@@H](NC(=O)[C@H](CN)NC(=O)[C@@H](NC(=O)[C@H](CCN)NC(=O)c2sc(Br)cc2Br)[C@@H](C)O)CCNC(=O)[C@H]([C@@H](C)O)NC(=O)[C@H](CCN)NC(=O)[C@H](CCN)NC(=O)[C@H]([C@@H](C)O)NC1=O [Compound 100] (X50-[Dab]T[Dap][Dab][Dab][dL]T[Dab][Dab]T; lactam 4-C)
output: 0.5 µg/mL
